# Experimental Target: MERTK (UniProt Q12866)
# Sequence (Q12866 whole entry, looked up): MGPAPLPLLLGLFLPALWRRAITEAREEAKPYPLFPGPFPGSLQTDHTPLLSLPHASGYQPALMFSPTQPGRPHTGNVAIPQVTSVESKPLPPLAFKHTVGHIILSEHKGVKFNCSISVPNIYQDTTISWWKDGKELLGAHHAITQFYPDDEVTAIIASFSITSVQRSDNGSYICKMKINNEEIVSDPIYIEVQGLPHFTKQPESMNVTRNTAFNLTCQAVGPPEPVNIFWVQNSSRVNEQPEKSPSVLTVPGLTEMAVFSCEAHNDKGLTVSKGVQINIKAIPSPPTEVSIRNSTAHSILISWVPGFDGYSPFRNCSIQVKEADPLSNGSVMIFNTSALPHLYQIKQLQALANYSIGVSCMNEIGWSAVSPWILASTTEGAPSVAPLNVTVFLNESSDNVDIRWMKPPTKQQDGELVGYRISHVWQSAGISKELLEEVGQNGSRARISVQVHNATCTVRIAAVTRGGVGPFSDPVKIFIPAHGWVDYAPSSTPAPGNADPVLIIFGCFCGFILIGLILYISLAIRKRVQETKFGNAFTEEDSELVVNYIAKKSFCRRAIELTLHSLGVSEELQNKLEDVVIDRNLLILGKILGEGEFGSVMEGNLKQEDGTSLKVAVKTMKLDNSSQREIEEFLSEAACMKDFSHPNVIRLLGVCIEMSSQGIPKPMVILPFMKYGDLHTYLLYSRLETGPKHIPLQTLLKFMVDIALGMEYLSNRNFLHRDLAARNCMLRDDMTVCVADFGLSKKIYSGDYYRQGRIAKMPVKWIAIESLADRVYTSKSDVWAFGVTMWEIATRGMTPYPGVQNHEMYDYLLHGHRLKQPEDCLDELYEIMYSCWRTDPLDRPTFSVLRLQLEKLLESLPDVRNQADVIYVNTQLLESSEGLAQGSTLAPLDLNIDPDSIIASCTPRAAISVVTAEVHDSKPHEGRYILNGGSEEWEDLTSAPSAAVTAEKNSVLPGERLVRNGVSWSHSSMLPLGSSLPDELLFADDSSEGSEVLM
# Assay Notes: phosphorylation enrichment, bacterial display (enrichment ratio); higher = better substrate or ligand; peptides without Tyr show the background;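 also: 11-residue human phosphosite peptides and single-mutation variants displayed on the E. coli surface, counted by deep sequencing, each peptide's frequency after selection divided by its frequency in the unselected input library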;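 also: frequency after pTyr selection over input frequency; kinase dosed for 20-30% of maximal phosphorylation in three min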
Measure Name: phosphorylation enrichment

[[record]]
sequence_content = "IDAVCYFRMEN [NPHS2_Y194_I192V_YF]"
observed_result = 0.715

[[record]]
sequence_content = "HHIDFYKETTN [FGFR1_Y654_K656E_YF]"
observed_result = 0.556

[[record]]
sequence_content = "TETGRYEILTE"
observed_result = 0.421

[[record]]
sequence_content = "QKINKYLTVPA [SLC9A1_Y683_N682K]"
observed_result = 0.52

[[record]]
sequence_content = "RLLVVYPWTQR [HBB_Y36]"
observed_result = 0.523

[[record]]
sequence_content = "EYHRLYEEYTR [PIK3R1_Y467_D464H]"
observed_result = 2.48

[[record]]
sequence_content = "CNNFIYGGCRG [SPINT2_Y163]"
observed_result = 0.391

[[record]]
sequence_content = "QNAGDYYDLYG [PTPN11_Y62_T59A]"
observed_result = 3

[[record]]
sequence_content = "YLENYYDLEKD [MMP3_Y42_K45E]"
observed_result = 0.752

[[record]]
sequence_content = "ATVRPYRPYII [LRP5_Y1528_A1525V]"
observed_result = 0.484

[[record]]
sequence_content = "HNLDFYKMTTN [FGFR3_Y648_K650M_YF]"
observed_result = 0.783

[[record]]
sequence_content = "FRQNVYIPGSN [PCDHGA1_Y895_YF]"
observed_result = 0.416

[[record]]
sequence_content = "SSWPGYVRPLP [HSPB1_Y54]"
observed_result = 0.407

[[record]]
sequence_content = "SILTVYSKDNY [PANK2_Y400_A398T]"
observed_result = 0.383

